Target: PD-L1 (antigen of the kinetic measurements) (human, UniProt Q9NZQ7)
Sequence (Q9NZQ7 19-238 limits assumed): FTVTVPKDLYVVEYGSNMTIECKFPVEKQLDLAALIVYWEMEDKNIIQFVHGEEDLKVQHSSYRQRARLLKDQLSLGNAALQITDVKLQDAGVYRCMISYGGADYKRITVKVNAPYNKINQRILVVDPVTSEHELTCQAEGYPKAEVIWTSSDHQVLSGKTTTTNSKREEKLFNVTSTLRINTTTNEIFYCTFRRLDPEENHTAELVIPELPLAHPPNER
Experiment: kinetic measurements for aPDL1 antibodies; instrument and antigen format not stated
Result type: kon (M⁻¹ s⁻¹)
Answers are plain numbers, in M⁻¹ s⁻¹.

kon for 1C6 (antibody, V domains shown, anti-PD-L1 clone; also called Ab 1C6) VH: QVQLVQSGGEVKKPGASVKVSCKASGYTLSSHGITWVRQAPGQGLEWMGWISAHNGHASNAQKVEDRVTMTTDTSTNTAYMELRSLTPDDTAVYYCARVHAALYYGMDVWGQGTLVTVSS VL: LPVLTQPPSVSVAPGQTARITCGGNNIGSKSVHWYQQKPGQAPVLVVYDDSDRPSGIPERFSGSNSGNTATLTINRVEAGDEADYYCQVWDSSSDHWVFGGGTKLTVL is 241000

Turning now to a further binder:
kon for 1H5 (antibody, V domains shown, anti-PD-L1 clone; also called Ab 1H5) VH: QVQLVQSGAEVKKPGSSVKVSCKASGGTFSRYALTWVRQAPGQGLEWMGGIIPIFGRANYAQKFQGRVTITADKSTSTAYMELGSLTSDDTAVYYCAEEGAFNSLAIWGQGTMVTVSS VL: NFMLTQPHSVSGSPGETVTISCTRSSGSIASHFVQWYQQRPGSSPTTVIFGDDQRPSGVPDRISGSIDTSSNSASLSISGLKTEDEADYYCQSYDSSNHVVFGGGTKLTVL is 1.28e+06
